# target.under.test: sn-1-specific diacylglycerol lipase ABHD11 (Homo sapiens, UniProt Q8NFV4)
# Sequence (Q8NFV4 whole entry): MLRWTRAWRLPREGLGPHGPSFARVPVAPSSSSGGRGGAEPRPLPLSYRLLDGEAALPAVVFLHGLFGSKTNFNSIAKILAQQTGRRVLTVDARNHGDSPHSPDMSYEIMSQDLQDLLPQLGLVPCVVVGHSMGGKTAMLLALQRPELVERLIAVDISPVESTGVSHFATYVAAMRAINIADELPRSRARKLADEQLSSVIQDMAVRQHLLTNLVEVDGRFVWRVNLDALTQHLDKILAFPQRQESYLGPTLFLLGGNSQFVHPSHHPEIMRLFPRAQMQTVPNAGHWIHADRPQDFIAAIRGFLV
pIC50: −log10 of the molar value.
endpoint: pIC50

1. O=C(N1CCCCC1)n1ncc(C(O)(c2ccccc2)c2ccccc2)n1 | > 7.52
